Target: PaTrmD (Pseudomonas aeruginosa)
Assay: TrmD inhibitor assay
Assay type: biochemical
REPORTED_METRIC: IC50 (nM)
// return numeric value only (unit: nM, not printed)

[in] May I ask what IC50 has been recorded for `CCCCCCCCNCc1ccc(CNC(=O)c2csc3nc[nH]c(=O)c23)cc1` ?
[out] 20

###

Target: PaTrmD (Pseudomonas aeruginosa, UniProt Q9HXQ1)
Sequence (Q9HXQ1 5-250): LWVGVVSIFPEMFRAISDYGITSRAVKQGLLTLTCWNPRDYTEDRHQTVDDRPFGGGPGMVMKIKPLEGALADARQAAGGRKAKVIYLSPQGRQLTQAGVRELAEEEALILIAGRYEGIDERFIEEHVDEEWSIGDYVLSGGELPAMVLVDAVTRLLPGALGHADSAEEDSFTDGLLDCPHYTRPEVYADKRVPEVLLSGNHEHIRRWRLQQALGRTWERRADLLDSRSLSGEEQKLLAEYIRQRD
Test: TrmD inhibitor assay
Assay type: biochemical
Settings: PaTrmD

{"SMILES_STRING": "O=C(NCc1ccc(CNCc2ccccc2)cc1)c1csc2nc[nH]c(=O)c12", "TESTED_TARGET": "PaTrmD (Pseudomonas aeruginosa, UniProt Q9HXQ1)", "TrmD inhibitory activity (in words)": "submicromolar activity"}
{"SMILES_STRING": "O=C(NCc1ccc(CNC23CC4CC(CC(C4)C2)C3)cc1)c1csc2nc[nH]c(=O)c12", "TESTED_TARGET": "PaTrmD (Pseudomonas aeruginosa, UniProt Q9HXQ1)", "TrmD inhibitory activity (in words)": "submicromolar activity"}
{"SMILES_STRING": "O=C(NCc1ccc(CNC2CCCCC2)cc1)c1csc2nc[nH]c(=O)c12", "TESTED_TARGET": "PaTrmD (Pseudomonas aeruginosa, UniProt Q9HXQ1)", "TrmD inhibitory activity (in words)": "submicromolar activity"}

Reference for the values: paper PMC6748665
